B1: TPR t1 (parent)
chain: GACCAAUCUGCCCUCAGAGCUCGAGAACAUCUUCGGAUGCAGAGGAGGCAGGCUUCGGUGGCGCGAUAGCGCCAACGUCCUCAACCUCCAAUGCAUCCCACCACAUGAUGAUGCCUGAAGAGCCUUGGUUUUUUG

- Variants of: B1
- Experiment: polymerase ribozyme fitness, log enrichment relative to wild type (log ratio); higher = more active; in vitro selection for triplet polymerase activity
Recorded polymerase ribozyme fitness (log ratio) values for a group of variants are listed next.
Measurement kind: polymerase ribozyme fitness (log ratio)

>>> df
                         sequence_change  measured_number
 0   C12U A27G C40U C56U C79A U81A C124U            -2.87
 1  U9G G44U G58A G60U C102U U106A U133C            -3.81
 2                              C3A C12A            -1.53
 3                           U109C A121U            -3.68
 4                      G69U C104A G113C             -1.8
 5                  G45A C49A C72G G128A            -3.14
 6                       A26G G51U C101U             -5.8
 7                      U59C G120A G135U            -0.46
 8                             C53G C73U           -0.493
 9                           C101A A111G            0.362
10                    U9G A41U U81C U96A            -2.65
11                   U7A C40U C85G C104U            -2.31
12                             G57A C99U            -4.88
13                C80G U106G G110A C124G            -6.57
14                             A27U C62U            -3.58
15                             G44U C56A            -1.54
16                             C85G C97U            -2.99
17                             U30C C88U            -2.37
18        G10A G47C G51C U59G U81C C115A            -5.77
19                            C13G A108G             -3.4
20                   A6U A46G C53G G117U            -2.98
21                        U7C G93A U132C           -0.396
22                    C3U A43C A50G C73U             -2.2
23                                  A91C             -1.4
24             A5U C12U G71U C114A G128A            -4.71
25                            C13G C124G            0.288
26                  G45U A50U A84U G117C            -7.49
27                             C11U G45A           -0.828
28                            A26U U129G            -3.51
29                    A5C G51C G77A C80G           -0.996
30                   C3U A18U C82A G120C             -1.8
31                 C53G C94A C115G G128C            -4.56
32            U33G G65U C72G A111C A118U            -6.82
